Data provenance is patent US20150044701A1.

# Lookup of reported log10(Kd) keyed by entry
molecular target: human IgA; assay: Surface plasmon resonance analysis (BiaCore T100) of peptide binding to human IgA; conditions: binding affinity to human IgA
Parameter value (number): base-10 log of Kd in nM.

Prompt: Which log10(Kd) is listed for HQVCLSYRGRPTCFSL [Opt2 M2Q V12T] ?
Completion: 2.17

Prompt: Can you handle HQVCLSYRGRPVCYSL [Opt2 M2Q F14Y] next?
Completion: 2.80
